Data provenance is ChEMBL document CHEMBL2311285.

Molecular target: Apoptosis regulator Bcl-2 (Homo sapiens, UniProt P10415)
Sequence (P10415 whole entry): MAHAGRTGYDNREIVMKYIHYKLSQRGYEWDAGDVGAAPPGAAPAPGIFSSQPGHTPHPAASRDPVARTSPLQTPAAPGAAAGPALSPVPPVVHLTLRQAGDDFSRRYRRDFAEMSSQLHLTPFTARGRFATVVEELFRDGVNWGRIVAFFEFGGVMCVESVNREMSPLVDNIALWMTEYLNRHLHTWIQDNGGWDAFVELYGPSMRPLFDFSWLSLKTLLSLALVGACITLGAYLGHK
# note: exactly 0.06 µM is not below, so it is N; use Y for IC50 strictly under it

Examples with answers:
CCCOC(=O)C1=C2C(=NC1=O)c1cccc3c(N4CCSCC4)ccc2c13: N
O=C1N=C2C(=C1NCc1ccccc1)c1ccc(N3CCSCC3)c3cccc2c13: N
N#CC1=C2C(=NC1=O)c1cccc3c(N4CCSCC4)ccc2c13: N
O=C1N=C2C(=C1NCCCc1ccccc1)c1ccc(Sc3ccc(OO)cc3)c3cccc2c13: Y
CCCCCCNC1=C2C(=NC1=O)c1cccc3c(N4CCSCC4)ccc2c13: N

**Q:** Hello, I'm reviewing records and need to know if IC50 of `Nc1ccc(Sc2ccc3c4c(cccc24)C2=NC(=O)C(NCCCc4ccccc4)=C23)cc1` is below 0.06 µM. Could you check?
**A:** Y

**Q:** Just wondering, is IC50 of `CC(C)c1ccc(Oc2ccc3c4c(cccc24)C2=NC(=O)C(C#N)=C23)cc1` below 0.06 µM?
**A:** N

**Q:** IC50 strictly < 0.06 µM for this compound? `CCCCNC1=C2C(=NC1=O)c1cccc3c(Sc4ccc(N)cc4)ccc2c13`
**A:** N

**Q:** Find out if reported IC50 for `O=C1N=C2C(=C1NCCCc1ccccc1)c1ccc(N3CCSCC3)c3cccc2c13` is less than 0.06 µM
**A:** Y

###

In this section we review reported Kd values for a set of compounds.
Molecular target: Induced myeloid leukemia cell differentiation protein Mcl-1 (Homo sapiens, UniProt Q07820)
Sequence (Q07820 whole entry, the tested form may be a part): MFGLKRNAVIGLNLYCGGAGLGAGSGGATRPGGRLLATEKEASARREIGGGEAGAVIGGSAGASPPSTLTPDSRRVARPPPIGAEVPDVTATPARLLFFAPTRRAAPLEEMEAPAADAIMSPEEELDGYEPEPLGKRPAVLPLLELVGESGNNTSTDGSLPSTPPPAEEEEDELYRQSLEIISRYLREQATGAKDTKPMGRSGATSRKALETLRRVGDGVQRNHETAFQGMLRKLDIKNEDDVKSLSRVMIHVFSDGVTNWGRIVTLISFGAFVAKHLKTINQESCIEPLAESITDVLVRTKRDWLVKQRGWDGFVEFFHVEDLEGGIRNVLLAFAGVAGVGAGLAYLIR
Test: Binding affinity to cMcl-1 (residues 171 to 327) (unknown origin) by ITC assay
Conditions: read-out: pKd (converted)
Give your result in nM as a bare value.

O=C1N=C2C(=C1NCCCc1ccccc1)c1ccc(Sc3ccc(OO)cc3)c3cccc2c13: 41.7

**Q:** // lookup Kd for `CCCCNC1=C2C(=NC1=O)c1cccc3c(Sc4ccc(OC)cc4)ccc2c13`
**A:** 151

**Q:** I'd like to know its Kd. The compound in question is `CCCCCCNC1=C2C(=NC1=O)c1cccc3c(Sc4ccc(OC)cc4)ccc2c13`
**A:** 77.6

**Q:** Which Kd value belongs to `CCCCCCNC1=C2C(=NC1=O)c1cccc3c(N4CCSCC4)ccc2c13` ?
**A:** 37.2

**Q:** I would be grateful if you could share the reported Kd for `CCCCCCNC1=C2C(=NC1=O)c1cccc3c(Sc4ccc(N)cc4)ccc2c13` .
**A:** 29.5

###

Molecular target: Apoptosis regulator Bcl-2 (Homo sapiens, UniProt P10415)
Recorded measurements of pKd, one per entry
Note on units: pKd is unitless, being -log10 of a concentration expressed in mol/L.

**Q:** Query the reported pKd for Apoptosis regulator Bcl-2 (Homo sapiens, UniProt P10415); item: `CCCCCCNC1=C2C(=NC1=O)c1cccc3c(Sc4ccc(N)cc4)ccc2c13`
**A:** 7.10

**Q:** GET /values?readout=pKd&system=Apoptosis regulator Bcl-2 (Homo sapiens, UniProt P10415)&item= `CCCCCCNC1=C2C(=NC1=O)c1cccc3c(N4CCSCC4)ccc2c13`
**A:** 7.02

**Q:** For Apoptosis regulator Bcl-2 (Homo sapiens, UniProt P10415), provide pKd of `COc1ccc(Sc2ccc3c4c(cccc24)C2=NC(=O)C(C#N)=C23)cc1` please.
**A:** 6.02

**Q:** Identify the measured pKd of `CCCCNC1=C2C(=NC1=O)c1cccc3c(Sc4ccc(OC)cc4)ccc2c13` for Apoptosis regulator Bcl-2 (Homo sapiens, UniProt P10415).
**A:** 6.45

**Q:** Could you share what pKd was measured for `O=C1N=C2C(=C1NCCCc1ccccc1)c1ccc(Sc3ccc(OO)cc3)c3cccc2c13` , tested on Apoptosis regulator Bcl-2 (Homo sapiens, UniProt P10415)?
**A:** 7.24

**Q:** Identify the measured pKd of `CCCCNC1=C2C(=NC1=O)c1cccc3c(Oc4ccc(C(C)C)cc4)ccc2c13` for Apoptosis regulator Bcl-2 (Homo sapiens, UniProt P10415).
**A:** 6.49

**Q:** // lookup pKd | system=Apoptosis regulator Bcl-2 (Homo sapiens, UniProt P10415) | key= `CCCCCCNC1=C2C(=NC1=O)c1cccc3c(Sc4ccc(OC)cc4)ccc2c13`
**A:** 6.69

**Q:** What is its pKd for Apoptosis regulator Bcl-2 (Homo sapiens, UniProt P10415)? Entry: `CC(C)c1ccc(Oc2ccc3c4c(cccc24)C2=NC(=O)C(NCCCc4ccccc4)=C23)cc1`
**A:** 7.38

**Q:** Query pKd on Apoptosis regulator Bcl-2 (Homo sapiens, UniProt P10415) for `Nc1ccc(Sc2ccc3c4c(cccc24)C2=NC(=O)C(NCCCc4ccccc4)=C23)cc1`
**A:** 7.70

###

// values below are reported Kd
Molecular target: Induced myeloid leukemia cell differentiation protein Mcl-1 (Homo sapiens, UniProt Q07820)
Experiment: Binding affinity to cMcl-1 (residues 171 to 327) (unknown origin) by ITC assay
Details: read-out: pKd (converted)
Write it as a number; the unit nM goes unstated.

CC(C)c1ccc(Oc2ccc3c4c(cccc24)C2=NC(=O)C(NCCCc4ccccc4)=C23)cc1: 38.9
COc1ccc(Sc2ccc3c4c(cccc24)C2=NC(=O)C(C#N)=C23)cc1: 389

**Q:** What value of Kd on Induced myeloid leukemia cell differentiation protein Mcl-1 (Homo sapiens, UniProt Q07820) does `CCCCNC1=C2C(=NC1=O)c1cccc3c(N4CCSCC4)ccc2c13` have?
**A:** 79.4

**Q:** Fill in the recorded Kd for this molecule, with Induced myeloid leukemia cell differentiation protein Mcl-1 (Homo sapiens, UniProt Q07820) as test system: `N#CC1=C2C(=NC1=O)c1cccc3c(N4CCSCC4)ccc2c13`
**A:** 95.5

**Q:** Query Kd on Induced myeloid leukemia cell differentiation protein Mcl-1 (Homo sapiens, UniProt Q07820) for `CC(C)c1ccc(Oc2ccc3c4c(cccc24)C2=NC(=O)C(C#N)=C23)cc1`
**A:** 324

**Q:** For Induced myeloid leukemia cell differentiation protein Mcl-1 (Homo sapiens, UniProt Q07820), provide Kd of `CCCCCCNC1=C2C(=NC1=O)c1cccc3c(Oc4ccc(C(C)C)cc4)ccc2c13` please.
**A:** 79.4

**Q:** Query the reported Kd for Induced myeloid leukemia cell differentiation protein Mcl-1 (Homo sapiens, UniProt Q07820); item: `Nc1ccc(Sc2ccc3c4c(cccc24)C2=NC(=O)C(NCCCc4ccccc4)=C23)cc1`
**A:** 10

**Q:** API: value(readout=Kd, system=Induced myeloid leukemia cell differentiation protein Mcl-1 (Homo sapiens, UniProt Q07820)) for record `N#CC1=C2C(=NC1=O)c1cccc3c(Sc4ccc(N)cc4)ccc2c13`
**A:** 91.2

**Q:** Kindly state the measured Kd obtained for `CCCCNC1=C2C(=NC1=O)c1cccc3c(Sc4ccc(N)cc4)ccc2c13` with Induced myeloid leukemia cell differentiation protein Mcl-1 (Homo sapiens, UniProt Q07820).
**A:** 50.1

**Q:** Which Kd is reported with Induced myeloid leukemia cell differentiation protein Mcl-1 (Homo sapiens, UniProt Q07820) for this entry: `CCCCNC1=C2C(=NC1=O)c1cccc3c(Oc4ccc(C(C)C)cc4)ccc2c13` ?
**A:** 141

**Q:** Checklist item: Kd tested on Induced myeloid leukemia cell differentiation protein Mcl-1 (Homo sapiens, UniProt Q07820), entry `O=C1N=C2C(=C1NCCCc1ccccc1)c1ccc(N3CCSCC3)c3cccc2c13` , value?
**A:** 15.1

###

Biological target: Induced myeloid leukemia cell differentiation protein Mcl-1 (Homo sapiens)
Experiment: Binding affinity to cMcl-1 (residues 171 to 327) (unknown origin) by ITC assay
Details: read-out: Kd
1 if Kd is below 800 nM. -1 if not; exact matches included in -1.

Worked set:
Cc1cc2c(C(C)C)c(O)c(O)c(C=O)c2c(O)c1-c1c(C)cc2c(C(C)C)c(O)c(O)c(C=O)c2c1O: -1
Nc1ccc(Sc2ccc3c4c(cccc24)C2=NC(=O)C(NCCCc4ccccc4)=C23)cc1: 1
CCCCNC1=C2C(=NC1=O)c1cccc3c(Sc4ccc(N)cc4)ccc2c13: 1

**Q:** Record `N#CC1=C2C(=NC1=O)c1cccc3c(N4CCSCC4)ccc2c13` : is its Kd strictly below 800 nM?
**A:** -1

###

Molecular target: Induced myeloid leukemia cell differentiation protein Mcl-1 (Homo sapiens, UniProt Q07820)
Test: Binding affinity to cMcl-1 (residues 171 to 327) (unknown origin) by biotin-Bim displacement based ELISA
Each item that follows carries a reported IC50.
Numbers only here, please. The scale is nM.

CCCCCNC1=C2C(=NC1=O)c1cccc3c(N4CCSCC4)ccc2c13: 37
CCCCCCNC1=C2C(=NC1=O)c1cccc3c(Oc4ccc(C(C)C)cc4)ccc2c13: 75
COc1ccc(Sc2ccc3c4c(cccc24)C2=NC(=O)C(C#N)=C23)cc1: 388
O=C1N=C2C(=C1NCCCCCc1ccccc1)c1ccc(N3CCSCC3)c3cccc2c13: 1100
N#CC1=C2C(=NC1=O)c1cccc3c(N4CCSCC4)ccc2c13: 95
O=C1N=C2C(=C1NCc1ccccc1)c1ccc(N3CCSCC3)c3cccc2c13: 521
N#CC1=C2C(=NC1=O)c1cccc3c(Sc4ccc(N)cc4)ccc2c13: 90

Please look at the following compound next.
**Q:** Sample `CCCCCCNC1=C2C(=NC1=O)c1cccc3c(Sc4ccc(OC)cc4)ccc2c13` — what was its IC50?
**A:** 78
